- assay-summary: Human HepG2 cell viability assay in 384 well format
- Format: toxicity, cell-based
- Parameters: dose 125 nL, time 70.5 hour; concentration not given beside the values
- condition-label: HepG2 cells, read-out: Inhibition
Reported cytotoxicity at 70.5 h by item:

- compound: "CC(C)N(CC1CCCN(Cc2ccon2)C1)C(=O)OC(C)(C)C (configuration not stated)"
  units: "%"
  cytotoxicity at 70.5 h: -2.83
- compound: "Cc1nn(C)c(N(C)C)c1CNC(C)c1cccnc1 (configuration not stated)"
  units: "%"
  cytotoxicity at 70.5 h: -6.25
- compound: "Cc1cnn(CC2CCCCN2C(=O)CCCc2nc(C)no2)c1 (configuration not stated)"
  units: "%"
  cytotoxicity at 70.5 h: -5.29
- compound: "COCCN1C(=O)CC(c2cccnc2)C12CCN(C)CC2 (configuration not stated)"
  units: "%"
  cytotoxicity at 70.5 h: 0.172
- compound: "O=C1CC(c2ccncc2)C2(CCN(C(=O)c3cccc(F)c3)CC2)N1 (configuration not stated)"
  units: "%"
  cytotoxicity at 70.5 h: -9.17
- compound: "COc1ccc(CN2Cc3nnn(C)c3C(COCCN(C)C)C2)cc1 (configuration not stated)"
  units: "%"
  cytotoxicity at 70.5 h: 4.07
- compound: "Cn1c2ncccc2c(=O)n1CC(=O)NCCC1=CCCCC1"
  units: "%"
  cytotoxicity at 70.5 h: -2.08
- compound: "Cc1n[nH]cc1CNc1ccc2c(c1)N(C(=O)OC(C)(C)C)CCC2"
  units: "%"
  cytotoxicity at 70.5 h: -5.44
- compound: "Cc1cc(NC(=O)CN(C)CC2CCCN2c2cccnn2)n(C)n1 (configuration not stated)"
  units: "%"
  cytotoxicity at 70.5 h: -5.26
- compound: "Cc1cccc(NC(=O)[C@@H]2CCCN2Cc2nc(C)c(C)o2)n1"
  units: "%"
  cytotoxicity at 70.5 h: -9.4
- compound: "CCOC(=O)c1sc(NC(=O)c2cc(=O)c(OC)c[nH]2)nc1C"
  units: "%"
  cytotoxicity at 70.5 h: -8.8
- compound: "c1ccc(CCN2CCN(c3ncnc4[nH]ccc34)CC2)cc1"
  units: "%"
  cytotoxicity at 70.5 h: -3.03
- compound: "CN(C)c1ccc(C(=O)N2CCCN(Cc3cscn3)CC2)nn1"
  units: "%"
  cytotoxicity at 70.5 h: 27.8
- compound: "COCCN(Cc1ccoc1)C(=O)c1ccccc1OC"
  units: "%"
  cytotoxicity at 70.5 h: -1.89
- compound: "COCCS(=O)(=O)NC(C)c1cccc(-n2cccn2)c1 (configuration not stated)"
  units: "%"
  cytotoxicity at 70.5 h: 0.445
- compound: "CCN1Cc2ccccc2CC2(CCN(CC3CCC3)CC2)C1=O"
  units: "%"
  cytotoxicity at 70.5 h: 11.7
- compound: "O=C(NCCc1nnc2n1CCC2)NCC1(c2cccc(F)c2)CC1"
  units: "%"
  cytotoxicity at 70.5 h: -29.8
- compound: "CSCC(C)C(=O)NCc1c(C)nc2cc(=O)[nH]n2c1C (configuration not stated)"
  units: "%"
  cytotoxicity at 70.5 h: 7.35
- compound: "CCNC(=O)CN1CCCN(C(=O)C2CCCc3[nH]ncc32)CC1 (configuration not stated)"
  units: "%"
  cytotoxicity at 70.5 h: -8.68
- compound: "COCCN1C[C@@H]2[C@@H](OC)CCN(Cc3cccs3)[C@@H]2C1"
  units: "%"
  cytotoxicity at 70.5 h: -1.71
- compound: "CC(C)COC(=O)N1CC(=O)N(CCCc2ccccc2)CC(O)C1 (configuration not stated)"
  units: "%"
  cytotoxicity at 70.5 h: -4.38
- compound: "c1cncc(OC[C@]23COC[C@H]2CN(C2CCC2)C3)c1"
  units: "%"
  cytotoxicity at 70.5 h: -1.17
- compound: "Nc1cccnc1N1CCCCCC1"
  units: "%"
  cytotoxicity at 70.5 h: 2.46
- compound: "CCCSc1nc(O)c(CC)c(=O)n1-c1ccccc1"
  units: "%"
  cytotoxicity at 70.5 h: -6.46
- compound: "COCC(=O)N1CCC(c2c(C(=O)N(C)C)sc3ncccc23)C1 (configuration not stated)"
  units: "%"
  cytotoxicity at 70.5 h: 27.1
- compound: "Cc1cc(-c2nnn(CCC(N)=O)n2)ccc1F"
  units: "%"
  cytotoxicity at 70.5 h: -9.65
- compound: "CSC(C)(C)CNC(=O)NCC[S+]([O-])c1ccccc1F (configuration not stated)"
  units: "%"
  cytotoxicity at 70.5 h: -9.35
- compound: "c1cncc(O[C@H]2CC[C@H]3[C@H]2OCCN3C2CCCC2)c1"
  units: "%"
  cytotoxicity at 70.5 h: -1.6
- compound: "CN(Cc1ccncc1)C1CC2(CCN(c3ncc(F)cn3)CC2)C1"
  units: "%"
  cytotoxicity at 70.5 h: 2.52
- compound: "c1nnc(Nc2cncc(C3CCCN3CC3CC3)n2)s1 (configuration not stated)"
  units: "%"
  cytotoxicity at 70.5 h: 0.394
- compound: "Cc1cc(=O)n(CC(=O)Nc2cccc(Cl)c2)nc1C"
  units: "%"
  cytotoxicity at 70.5 h: 21.6
- compound: "CC(=O)N(CCc1ccccc1)CC(=O)NC(C)(C)C#N"
  units: "%"
  cytotoxicity at 70.5 h: -2.72
- compound: "CC(C)CS(=O)(=O)N1C[C@H]2C[C@H](C(=O)N3CCOCC3)[C@@H](C1)O2"
  units: "%"
  cytotoxicity at 70.5 h: 13.9
- compound: "O=C1CC2(CCN(CC3CC3)C2)CN1c1ccc2c(c1)OCO2 (configuration not stated)"
  units: "%"
  cytotoxicity at 70.5 h: 3.77
- compound: "CN(C)CCNC(=O)c1nc2c(o1)CN(c1ncccn1)C2"
  units: "%"
  cytotoxicity at 70.5 h: -3.63
- compound: "Cc1noc(C)c1CN1CCN(Cc2nc(C3CC3)no2)CC1"
  units: "%"
  cytotoxicity at 70.5 h: -12.8
- compound: "O=C(Nc1ccccc1-c1cccs1)N1CCN(CC(F)F)CC1"
  units: "%"
  cytotoxicity at 70.5 h: -11.6
